// provenance: PubChem BioAssay AID1645867

# tgt: Ubiquitin carboxyl-terminal hydrolase isozyme L1 (Homo sapiens) (UniProt P09936)
# Sequence (P09936 whole entry, looked up): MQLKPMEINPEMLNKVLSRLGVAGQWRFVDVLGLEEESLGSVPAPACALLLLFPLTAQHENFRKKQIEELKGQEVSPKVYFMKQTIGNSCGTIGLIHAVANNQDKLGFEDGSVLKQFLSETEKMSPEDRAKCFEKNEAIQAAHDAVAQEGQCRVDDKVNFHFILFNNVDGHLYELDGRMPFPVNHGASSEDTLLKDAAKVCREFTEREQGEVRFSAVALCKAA
# assay_overview: biochemical concentration-response of UCH-L1 DUB inhibitors, hit verification (AID 1645867)
# run_conditions: recombinant UCHL1 deubiquitinase activity assay
The source made the active and inactive calls. How the calls were made is not given here.
Thanks in advance; please answer with one of these: active, inactive

compound="Cc1ccc(C2CC(=O)C3=C(C2)Nc2ccccc2N(C(=O)c2ccccc2)C3c2ccccc2)cc1 (stereo not drawn)" class_label=inactive
compound=O=C(CSc1nnc(C2CC2)n1-c1ccccc1)c1ccc(F)c(F)c1 class_label=inactive
compound=COc1ccc(-c2cnn(-c3ccc(NC(=O)Nc4cccc(C(F)(F)F)c4)cc3)c2)cc1 class_label=inactive
compound="CCOc1ccc(C(c2c(NC(=O)c3ccccc3)sc(C)c2C)N2CCN(CCO)CC2)cc1 (stereo not drawn)" class_label=inactive
compound=O=C(CSc1ccc(-c2cccc([N+](=O)[O-])c2)nn1)Nc1cccc(F)c1 class_label=inactive
compound=O=C(CCCn1c(=O)c2ccccc2n(CC(=O)NCc2ccccc2Cl)c1=O)NCc1ccc2c(c1)OCO2 class_label=inactive
compound=C/C=C/C=C/[C@@H]1Cc2cc(O)cc(O)c2O1 class_label=active
compound=CO/C1=C\C(C)=C\[C@@H](C)[C@@H](O)[C@H](C)C/C(C)=C/C=C/[C@H](OC)[C@@H]([C@@H](C)[C@@H](O)[C@H](C)[C@@]2(O)C[C@@H](OC(=O)/C=C/C(=O)NC3=C(O)CCC3=O)[C@H](C)[C@@H](C(C)C)O2)OC1=O class_label=inactive

IN: Status in this test for `O=C(CN1CC(=O)c2ccccc2S1(=O)=O)Nc1ccccc1` ?
OUT: inactive

IN: # lookup: test call for `Cc1ccccc1NC(=O)Cn1c(=O)n(-c2ccc(CC(=O)NCCc3ccccc3)cc2)c(=O)c2sccc21`
OUT: inactive

IN: Dear colleague, could you share the recorded outcome for `COc1ccc2c(C)c(CC(=O)N3CCC[C@H]3C(=O)O)c(=O)oc2c1C` when you have a moment?
OUT: inactive

IN: GET /call?item= O=C(c1ccc2cc[nH]c2c1)N1CCC(Nc2cccnc2)C1 (stereo not drawn) returns the recorded outcome of this test.
OUT: inactive

IN: Short answer needed: outcome of this test for `N#Cc1c(-c2ccc(Cl)cc2)ccn2nc(CCC(=O)O)nc12` ?
OUT: inactive
